All figures here come from patent US20140120095A1.

- tgt: T1, human DLL4 overexpressed on cells (human, UniProt Q9NR61 27-685)
- T1 construct: full length human DLL4 on CHO or HEK293 cells; also called CHO-hDLL4; CHO-hDII4
- assay procedure: competitive FMAT, hNotch1-Fc on CHO-hDLL4
observable: pIC50
Please keep in mind that pIC50 is minus log10 of the molar concentration; only the number is needed.

# example entries with known answers
binder	reported value
DLLBII56A09 (VHH, also called 56A9; DLLBII56A9) VHH: EVQLVESGGGLVQPGGSLRLSCAASGFTFDDYAIGWFRQAPGKEPEGISCISSSGGITYYADSVKGRFTTSRDNAKNTVYLQMNSLKPEDTAVYYCATPGIAACRGIHYTGQGTQVTVSS	7.97
DLLBII6B11 (VHH, also called DLLBII06B1) VHH: EVQLVESEGGLVQAGGSLRLSCAASGSTFSSYAMGWYRQAPGKQRELVAVISNGGITNYPNSVKGRFTISRDNAKNTVYLQMNSLKPEDTAVYYCFYSGSYYYPTDVHEYDYWGQGTQVTVSS	8.05
DLLBII08A09 (VHH, also called DLLBII8A09) VHH: EVQLVESGGGLVQPGGSLRLSCAASGFTLDYYNIGWFRQAPGKEREWVSCINSSDGSTYYADSVKGRFTISRDNAKNTVYLQMNSLKPEDTAVYYCAAPFAYYSNLCGVNGYDYWGQGTQVTVSS	8.26

In the following, a different binder is considered.
Enquiry: Please give the measured pIC50 for this binder: DLLBII104G01 (VHH, also called 104G1) VHH: EVQLVESGGGLVQAGGSLRLSCAASGFTFDDYAIGWFRQAPGKEREGVSCISSSDGSTYYADSVKGRFTISSDNAKNTVYLQMNSLKPEDTAVYYCATAWCDSSWYRSFVGYWGQGTQVTVSS
Return: 8.60
